# TARGET ENTITY: mouse RORγ (Mus musculus, UniProt P51450)
# Construct: mouse RORγ, from Ile251 to Lys516; expressed in transfected cells; host or cells: CHO cells (Chinese hamster ovary), transient co-transfection with pG5-Luc
# Sequence (P51450 251-516): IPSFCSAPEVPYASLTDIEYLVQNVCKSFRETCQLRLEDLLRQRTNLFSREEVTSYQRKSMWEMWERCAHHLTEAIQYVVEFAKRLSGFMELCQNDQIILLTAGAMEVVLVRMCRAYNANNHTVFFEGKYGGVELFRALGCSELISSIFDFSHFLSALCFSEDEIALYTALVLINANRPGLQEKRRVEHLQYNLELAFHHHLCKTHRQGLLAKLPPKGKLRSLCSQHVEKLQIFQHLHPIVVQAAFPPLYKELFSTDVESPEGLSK
# MEASUREMENT NOTES: In vitro assay of inhibitory effect against RORγ transcriptional activity (GAL4-mRORγ LBD luciferase reporter gene assay in CHO cells)
# Type: cell-based
# SETUP CONDITIONS: GAL4-mRORγ LBD luciferase reporter, CHO cells; read-out: LUC EC50 mRORγ
# maps each entry to its EC50
Answer format: numeric, nM implied, no suffix.

Some molecules with known EC50 results, for comparison:
CC(C)C1=CN(C23C4C5C2C2C3C4C52C(=O)O)C(=O)N[C@@]1(C)c1ccc(CCC(C)(C)C)c(Cl)c1 (single isomer, unassigned)
40
CC(C)CCOc1ccc([C@]2(C)NC(=O)N(c3ccc(C(=O)O)cc3)C=C2C2CC(F)(F)C2)cc1Cl
39

Kindly consider the entry below.
# lookup: EC50 of COCCC1=CN(C23CCC(C(=O)O)(C2)C3)C(=O)N[C@@]1(C)c1ccc(CCC(C)(C)C)c(Cl)c1
8

---

Listing of entries alongside the reported pEC50.
# TARGET ENTITY: human RORγ (Homo sapiens)
# Construct: human RORγ, from Ser253 to Lys518; expressed in transfected cells; host or cells: CHO cells (Chinese hamster ovary), transient co-transfection with pG5-Luc
# MEASUREMENT NOTES: In vitro assay of inhibitory effect against RORγ transcriptional activity (GAL4-hRORγ LBD luciferase reporter gene assay in CHO cells)
# Format: cell-based
# SETUP CONDITIONS: GAL4-hRORγ LBD luciferase reporter, CHO cells; read-out: LUC EC50 hRORγ
Expect pEC50 as a plain number equal to -log10 of the molar concentration.

Some entries whose results are on file:
CC(C)C1=CN(CCC(=O)O)C(=O)N[C@@]1(C)c1ccc(C=C2CCC2)c(Cl)c1
5.83
CC(C)C1=CN(CCC(=O)O)C(=O)N[C@@]1(C)c1ccc([C@H]2C[C@@H](C(C)C)C2)c(Cl)c1
7.66
CC(C)(C)CCc1ccc([C@]2(C)NC(=O)N(c3ccc(C(=O)O)cn3)C=C2C2CC(F)(F)C2)cc1Cl
7.64

Then this compound:
# lookup: pEC50 of CC(C)C1=CN(C23C4C5C2C2C3C4C52C(=O)O)C(=O)N[C@@]1(C)c1ccc(CCC(C)(C)C)c(Cl)c1 (single isomer, unassigned)
7.70

---

# TARGET ENTITY: human RORγ (Homo sapiens)
# Construct: human RORγ, from Ser253 to Lys518; expressed in transfected cells; host or cells: CHO cells (Chinese hamster ovary), transient co-transfection with pG5-Luc
# Sequence (P51449 253-518): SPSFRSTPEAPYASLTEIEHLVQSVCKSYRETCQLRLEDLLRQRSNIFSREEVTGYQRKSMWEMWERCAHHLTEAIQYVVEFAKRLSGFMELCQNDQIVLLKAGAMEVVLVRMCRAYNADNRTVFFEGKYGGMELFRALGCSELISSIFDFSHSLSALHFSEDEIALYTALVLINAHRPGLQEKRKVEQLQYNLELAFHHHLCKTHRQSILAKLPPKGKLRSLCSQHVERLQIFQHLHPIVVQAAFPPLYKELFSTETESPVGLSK
# MEASUREMENT NOTES: In vitro assay of inhibitory effect against RORγ transcriptional activity (GAL4-hRORγ LBD luciferase reporter gene assay in CHO cells)
# Format: cell-based
# SETUP CONDITIONS: GAL4-hRORγ LBD / pG5-Luc in CHO cells, 2 days incubation
MEASURED PARAMETER: pEC50
Reminder that pEC50 is minus the log10 of a molar concentration.

Below, each entry is followed by its recorded pEC50 result.
CC(C)(C)CCc1ccc(C2(C)NC(=O)N(CCCC(=O)O)C=C2CC(C)(C)C)cc1Cl (racemic) [Example 23]
7.38
CC(C)(C)COc1ccc(C2NC(=O)N(CCCC(=O)O)C=C2C(C)(C)C)cc1Cl (single isomer, unassigned) [Example 5]
7.47
CCCCc1ccc(C2(C)NC(=O)N(CCCC(=O)O)C=C2C(C)C)cc1Cl (racemic) [Example 28]
6.73
CCC1=CN(CCCC(=O)O)C(=O)N[C@]1(C)c1ccc(CCC(C)(C)C)c(Cl)c1 [Example 68]
5.91

I am curious: what pEC50 value has been reported for CC(C)C1=CN(C23CC(C(=O)O)(C2)C3)C(=O)N[C@@]1(C)c1ccc(CCC(C)(C)C)c(Cl)c1 [Example 186] ?
7.04

Consider the compound CC(C)C1=CN(CCCC(=O)O)C(=O)NC1(C)c1ccc(OCC(C)(C)C)c(Cl)c1 (single isomer, unassigned) [Example 13] and give its measured pEC50.
5.18

Need pEC50, item COCCN1C=C(C(C)(C)CCC(=O)O)C(C)(c2ccc(CCC(C)(C)C)c(Cl)c2)NC1=O (single isomer, unassigned) [Example 160]
7.82
